// provenance: patent US9771345B2

Biological target: recombinant human tryptase, beta, from lung (Homo sapiens)
Sequence (P20231 31-275): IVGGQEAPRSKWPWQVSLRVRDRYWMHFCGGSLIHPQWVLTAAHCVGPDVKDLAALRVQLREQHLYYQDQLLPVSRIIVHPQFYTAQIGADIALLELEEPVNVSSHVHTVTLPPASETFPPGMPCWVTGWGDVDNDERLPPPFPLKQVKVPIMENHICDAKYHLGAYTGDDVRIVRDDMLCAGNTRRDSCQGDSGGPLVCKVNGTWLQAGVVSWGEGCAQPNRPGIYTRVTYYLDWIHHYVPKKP
Assay: Inhibition of tryptase activity by coferons (Boc-Gln-Ala-Arg-AMC fluorescence)
Settings: coferon monomer alone; 1 nM tryptase
Quantity Name: IC50 (µM)
Numbers only, in µM.

The examples below pair each entry with its known result.
In: In one line, give reported IC50 of the entry `NCc1cccc(C2CCN(C(=O)Cc3cccc(B(O)O)c3)CC2)c1` .
Out: 8.15

In: # return recorded IC50 for entry `NCc1cccc(C2CCN(C(=O)c3cccc4cc(O)c(O)cc34)CC2)c1`
Out: 1.2

Next item in the queue.
In: Give recorded IC50. `NCc1cccc(C2CCN(C(=O)c3cccc4ccc(B(O)O)cc34)CC2)c1`
Out: 15
